B1: MEF2-activating motif and SAP domain-containing transcriptional regulator, residues 170 to 204; numbered along this chain, Q6ZN01 (parent)
chain: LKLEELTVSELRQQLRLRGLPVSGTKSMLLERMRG

Variants of: B1
Assay: abundance fitness (aPCA) (normalised: wild type 0, dead -1); higher = more abundant; growth selection in yeast, the domain comes from the species named
Details: Homo sapiens
Cut-off -0.3 on abundance fitness, inclusive. At or above means MET; below means NOT MET.

Some solved entries appear below for comparison.
> print(dat)
   mutation.annotation  class.name
1                 L29D     NOT MET
2                 V22Y         MET
3                 L30P     NOT MET

IN: Please check the record `G35W` and state if its abundance fitness is at or above -0.3.
OUT: NOT MET
